Target: Cytochrome P450 3A4 (Homo sapiens)
Assay: Cytochrome P450 Family 3 Subfamily A Member 4 (CYP3A4) small molecule antagonists: luciferase reporter qHTS assay (AID 1671201); further: nearly all actives have a fitted effect of over 50% in size
Conditions: P450-Glo CYP3A4 enzyme, luciferin luminescence, 1 h; series mostly up to 115 µM
Results filed as inconclusive are left out. Calls of active or inactive are those of the source. The call rests on the fitted dose curve; in most records, active means well fitted inhibition curve with a large enough effect in the repeat runs; inconclusive means weak or mixed curves; inactive means no such curve, though single readings can be large or run the other way.
Labels: active, inactive

compound=S=C=NCc1ccccc1 subject_of_test="Cytochrome P450 3A4 (Homo sapiens)" assigned_class=active
compound=CCCCc1c(C)nc(NCC)nc1OS(=O)(=O)N(C)C subject_of_test="Cytochrome P450 3A4 (Homo sapiens)" assigned_class=active
compound="O=S1OC[C@@H]2[C@H](CO1)[C@]1(Cl)C(Cl)=C(Cl)[C@@]2(Cl)C1(Cl)Cl (stereo not given in full)" subject_of_test="Cytochrome P450 3A4 (Homo sapiens)" assigned_class=inactive
compound="COCC(C)N(C(=O)CCl)c1c(C)csc1C (stereo not given)" subject_of_test="Cytochrome P450 3A4 (Homo sapiens)" assigned_class=inactive
compound="CC1CC(CC2CCC(N)C(C)C2)CCC1N (stereo not given)" subject_of_test="Cytochrome P450 3A4 (Homo sapiens)" assigned_class=active
compound=C=CC(=O)OC(C)(C)C subject_of_test="Cytochrome P450 3A4 (Homo sapiens)" assigned_class=inactive
compound=Nc1ccc([N+](=O)[O-])cc1[N+](=O)[O-] subject_of_test="Cytochrome P450 3A4 (Homo sapiens)" assigned_class=inactive
compound=Cc1ccccc1C(=O)Nc1cccc(OC(C)C)c1 subject_of_test="Cytochrome P450 3A4 (Homo sapiens)" assigned_class=inactive
compound=CCBr subject_of_test="Cytochrome P450 3A4 (Homo sapiens)" assigned_class=inactive
compound=CCOP(=S)(OCC)SCn1nnc2ccccc2c1=O subject_of_test="Cytochrome P450 3A4 (Homo sapiens)" assigned_class=active

###

Test: qHTS assay to identify small molecule antagonists of the farnesoid-X-receptor (FXR) signaling pathway - cell viability counter screen (AID 743221); further: nearly all actives have a fitted effect of over 50% in size
Conditions: FXR-bla HEK293T viability, CellTiter-Glo luminescence, 16 h; series mostly up to 62.6 µM
Results filed as inconclusive are left out. Active and inactive are the calls of the source. Calls follow the shape of the dose curve; as a rule, active = well fitted cell-killing curve with a large enough effect in the repeat runs (not every such curve was filed as active); inconclusive = weak or mixed curves, or effect the other way; inactive = no such curve, though single readings can be large or run the other way.
Labels: active, inactive

compound=C(=NC1CCCCC1)=NC1CCCCC1 assigned_class=inactive
compound=O=C(C(Cl)(Cl)Cl)C(Cl)(Cl)Cl assigned_class=inactive
compound="CN1C(=O)NC(=O)C(C)(C2=CCCCC2)C1=O (centres undefined)" assigned_class=inactive
compound=C=CC[C@]1(O)CC[C@H]2[C@@H]3CCC4=CC(=O)CCC4=C3C=C[C@@]21C assigned_class=inactive
compound=C=CC(=O)OCCCCO assigned_class=inactive
compound="Cc1c(F)c(F)c(COC(=O)C2C(/C=C(\\Cl)C(F)(F)F)C2(C)C)c(F)c1F (centres undefined)" assigned_class=inactive
compound="CC(=O)NC1CCSC1=O (centres undefined)" assigned_class=inactive
compound="CC1Sc2c(C(=O)O)c(=O)c3cc(F)c(N4CCNCC4)cc3n21 (centres undefined)" assigned_class=inactive
compound=CCOP(=S)(OCC)SCSCC assigned_class=inactive
compound=COP(=S)(OC)Oc1cc(Cl)c(I)cc1Cl assigned_class=inactive
compound=C=CCN1CC[C@]23c4c5ccc(O)c4O[C@H]2C(=O)CC[C@@]3(O)[C@H]1C5 assigned_class=inactive
compound=CC[C@H]1C[C@H]2[C@@H]3CCC4=CC(=O)CC[C@@H]4[C@H]3CC[C@]2(C)[C@H]1O assigned_class=inactive
compound="O=C(NC(=O)c1c(F)cccc1F)Nc1ccc(OC(F)(F)C(F)OC(F)(F)F)c(Cl)c1 (centres undefined)" assigned_class=inactive
compound="CCCC(Cn1cncn1)c1ccc(Cl)cc1Cl (centres undefined)" assigned_class=inactive
compound=CC(=O)[C@H]1CC[C@H]2[C@@H]3CC[C@H]4C[C@](C)(O)CC[C@]4(C)[C@H]3CC[C@]12C assigned_class=inactive
compound=C[N+](C)(C)CCCl assigned_class=inactive
compound=CCOS(C)(=O)=O assigned_class=inactive
compound=NS(=O)(=O)C(F)(F)C(F)(F)C(F)(F)C(F)(F)C(F)(F)C(F)(F)C(F)(F)C(F)(F)F assigned_class=active
compound=CCOP(=O)(OCC)O/C(=C/Cl)c1ccc(Cl)cc1Cl assigned_class=inactive
